Test system: Septoria tritici
Assay: in vivo preventive Septoria tritici test (wheat)
Conditions: Table G2, 21 days after inoculation, 40 ppm a.i.
READOUT TYPE: Efficacy in % found (%)
Value expressed in %; do not type the unit.

Consider the worked cases shown below.
MOLECULE	READOUT TYPE	VALUE REPORTED
Cn1cc(C(=O)Nc2ccccc2-c2cc(F)c(F)c(F)c2)c(C(F)F)n1	Efficacy in % found	13
Cn1cc(C(=O)Nc2cccc3c2[C@@H]2CC[C@H]3C2=C(Cl)Cl)c(C(F)F)n1 (racemic)	Efficacy in % found	38
Cn1cc(C(=O)Nc2ccc(F)cc2-c2ccc(Cl)c(Cl)c2)c(C(F)F)n1	Efficacy in % found	0
COC(=O)N(OC)c1ccccc1COc1ccn(-c2ccc(Cl)cc2)n1	Efficacy in % found	88

Entry CCN(C)/C=N/c1cc(C)c(Oc2ccccc2)cc1C ; assay system Septoria tritici; Efficacy in % found recorded at 0
